# testedSystem: T1, HLA-DP DPB1*05:01 (human)
# T1 construct: its preparation is not described
# experimentSummary: competition assay
propertyMeasured: IC50 (µM)
Express your answer in µM, writing the number without its unit.

What does the record list as IC50 for SLFFSAQPFEITAST (also called p18) [ApoB100 peptide 3563.0018] ?
1.48
